Test: Pharmacokinetics of single administration in mice
Format: in vivo, Balb/c mice
Design: unit not given here
Details: iv 2 mg/kg
propertyMeasured: Vz

{"compound": "[2H]C([2H])([2H])n1cc(-c2c[nH]c3ncc(-c4ccc(N5CCC(CC6CCN(C(=O)c7ccc(Cl)c(N8CCC(=O)NC8=O)c7)CC6)CC5)nc4)nc23)cn1 [Compound C160]", "Vz": 602}

1: C/C(=C(Cl)\C=C/CC(=O)N1CCC(CC2CCN(c3ccc(-c4cnc5[nH]cc(-c6cnn(C)c6)c5n4)cn3)CC2)CC1)N1CCC(=O)NC1=O [Compound C110]
2: O=C1CCN(c2cc(C(=O)N3CCC(CC4CCN(c5ccc(-c6cnc7[nH]cc(-c8cnn(C9CC9)c8)c7n6)cn5)CC4)CC3)ccc2Cl)C(=O)N1 [Compound C170]
Ask: # query: argmin of Vz over 1 and 2 Give the label under which the chosen entry appears.
Result: 1
